IC50 for assorted compounds
- STUDY SYSTEM: JAK1 (Homo sapiens)
- Construct: 5 μl of catalytic domain recombinant Kinase enzyme+Tyr peptide substrate (Invitrogen, CA)
- Sequence (P23458 875-1153 limits assumed): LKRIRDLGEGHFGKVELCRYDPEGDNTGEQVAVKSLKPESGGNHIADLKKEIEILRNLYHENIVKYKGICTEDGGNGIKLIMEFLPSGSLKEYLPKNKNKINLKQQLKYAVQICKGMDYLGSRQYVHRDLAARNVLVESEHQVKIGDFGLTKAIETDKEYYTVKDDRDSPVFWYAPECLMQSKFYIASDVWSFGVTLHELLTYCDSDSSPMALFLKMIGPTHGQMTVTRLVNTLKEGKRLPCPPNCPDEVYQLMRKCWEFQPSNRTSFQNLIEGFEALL
- MEASUREMENT DESCRIPTION: Z'-LYTE kinase assay JAK1

Would you please look over these solved cases?
>>> obs_value("NC(=O)c1cnc(Nc2ccc(S(=O)(=O)N3CCC3)cc2)cc1NCc1ccccc1 [Example 47]")
"> 1000 nM"
>>> obs_value("NC(=O)c1cnc(Nc2cccc(CN3CCOCC3)c2)cc1NC1(c2ccccc2)CC1 [Example 129]")
"> 1000 nM"
>>> obs_value("CC(=O)Nc1cccc(Nc2nc(N)c(C(N)=O)cc2F)c1 [Example 21]")
"> 1000 nM"
>>> obs_value("NC(=O)c1cnc(Nc2ccc(C3CCOCC3)cc2)cc1NC1CCCC1 [Example 150]")
"100 to 1000 nM"
>>> obs_value("Cc1cc(Nc2cc(NCc3cccc4ccsc34)c(C(N)=O)cn2)ccc1C(=O)N1CCCC1 [Example 458]")
"100 to 1000 nM"
>>> obs_value("N#Cc1cccc(Nc2cc(NCc3ccccc3)c(C(N)=O)cn2)c1 [Example 391]")
"> 1000 nM"

// fetch IC50 given entry NC(=O)c1cnc(Nc2ccc(C(=O)N3CCCC3)cc2)cc1NCc1ccccc1 [Example 39]
100 to 1000 nM

Fill in reported IC50 for this entry: NC(=O)c1cnc(Nc2ccc(OCC(=O)N3CCOCC3)cc2)cc1NCc1ccccc1 [Example 80]
> 1000 nM

Complete the entry with IC50 for NC(=O)c1cnc(Nc2cccc(C3CCN(C4CCCC4)CC3)c2)cc1NCc1ccccc1F [Example 110]
100 to 1000 nM

Provide measured IC50 value, entry: NC(=O)c1cnc(Nc2ccc(C3CCN(CCF)CC3)cc2)cc1NCc1cccc(F)c1F [Example 217]
100 to 1000 nM

Please give the documented IC50 of CC(=O)N1CCN(c2ccc(Nc3cc(NCc4cccs4)c(C(N)=O)cn3)cc2)CC1 [Example 122]
100 to 1000 nM

Dear colleague, please send me the reported IC50 for CCC(=O)N1CCN(c2ccc(Nc3cc(NC4(c5cccc(F)c5F)CC4)c(C(N)=O)cn3)cc2)CC1 [Example 374] when you can.
100 to 1000 nM

Could you please provide reported IC50 for CN(C)C(=O)C1CN(c2ccc(Nc3cc(NCc4cccc5ccsc45)c(C(N)=O)cn3)cc2F)C1 [Example 349] ? Thanks!
100 to 1000 nM

Determine its reported IC50: COCC(=O)N1CC(c2ccc(Nc3cc(NCc4cccc5[nH]ccc45)c(C(N)=O)cn3)cc2)C1 [Example 494]
1 to 10 nM

====

- STUDY SYSTEM: JAK3 (Homo sapiens, UniProt P52333)
- Construct: 5 μl of catalytic domain recombinant Kinase enzyme+Tyr peptide substrate (Invitrogen, CA)
- Sequence (P52333 822-1111 limits assumed): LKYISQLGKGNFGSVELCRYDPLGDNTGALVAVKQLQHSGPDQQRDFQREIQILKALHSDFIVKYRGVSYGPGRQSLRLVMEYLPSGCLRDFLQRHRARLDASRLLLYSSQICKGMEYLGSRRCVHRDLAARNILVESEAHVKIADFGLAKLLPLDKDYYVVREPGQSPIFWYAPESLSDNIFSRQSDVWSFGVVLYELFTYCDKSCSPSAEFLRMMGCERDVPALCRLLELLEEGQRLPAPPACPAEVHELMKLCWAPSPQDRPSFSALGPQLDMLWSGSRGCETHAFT
- MEASUREMENT DESCRIPTION: Z'-LYTE kinase assay JAK3
pIC50: −log10 of the molar value.
MEASURED PARAMETER: pIC50

Example molecules with recorded pIC50:
>>> obs_value("CS(=O)(=O)Cc1ccc(Nc2cc(NCc3cccc4[nH]ccc34)c(C(N)=O)cn2)cc1")
"> 9.00"
>>> obs_value("NC(=O)c1cnc(Nc2cccc(OCCN3CCCC3)c2)cc1NCc1cccnc1")
"8.00 to 9.00"
>>> obs_value("NC(=O)c1cnc(Nc2ccc(C3CCOCC3)cc2)cc1NCc1cccc(F)c1")
"7.00 to 8.00"
>>> obs_value("Cc1cc(Nc2cc(NCc3cccc4cc[nH]c34)c(C(N)=O)cn2)ccc1C(=O)N(C)C")
"8.00 to 9.00"
>>> obs_value("CCC(=O)N1CCC(c2ccc(Nc3cc(NCc4cccc5[nH]ccc45)c(C(N)=O)cn3)cc2)CC1")
"8.00 to 9.00"
>>> obs_value("COCC(=O)N1CCC[C@H](CNc2cc(Nc3ccc(C(=O)N(C)C)cc3)ncc2C(N)=O)C1")
"7.00 to 8.00"
>>> obs_value("CN(C)C(=O)NCc1ccc(Nc2cc(NCc3cccc4ccsc34)c(C(N)=O)cn2)cc1")
"8.00 to 9.00"

Turning now to a further molecule:
Identify measured pIC50 corresponding to NC(=O)c1cnc(Nc2ccc3ncsc3c2)cc1NCc1ccccc1
7.00 to 8.00
